measured on: DRB1*1101 (Homo sapiens, UniProt P01903+P01911, A100R/A169T/A87E/I96F/K41T/L162R/M171V/P40S/Q125H/Q178H/Q39Y/Q99D/R42S/S66Y/T262R/V115G/W38E)
Sequence (P01903 26-254 limits assumed, other chains not shown): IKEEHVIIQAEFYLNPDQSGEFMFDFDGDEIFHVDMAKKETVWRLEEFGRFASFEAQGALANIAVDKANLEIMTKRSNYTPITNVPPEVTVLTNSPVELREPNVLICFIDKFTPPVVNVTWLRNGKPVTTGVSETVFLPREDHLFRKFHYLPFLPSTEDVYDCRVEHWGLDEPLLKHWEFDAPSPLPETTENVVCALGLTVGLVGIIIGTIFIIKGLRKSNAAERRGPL
protocol details: biochemical
run conditions: Binding affinity DRB1 *1101
pIC50: −log10 of the molar value. No end group written: not given here.

{"seq text": "YDPLYCESVHNFTLP [Peptide 68.0041]", "sign qualifier": "<", "pIC50": 4.70}
{"seq text": "RFHNIMGRWTGRCSE [Peptide 1543.60]", "sign qualifier": "=", "pIC50": 7.62}
{"seq text": "SNLLSIPETCMVIEP [Peptide 89.0067]", "sign qualifier": "=", "pIC50": 4.89}
{"seq text": "FLDVVTIPNSVQISV [Peptide 1601.40]", "sign qualifier": "=", "pIC50": 5.66}
{"seq text": "ISEVMGDTPEWIQRL [Peptide 90.0052]", "sign qualifier": "<", "pIC50": 4.70}
{"seq text": "DFLNTVKIPNTVSVS [Peptide 1601.28]", "sign qualifier": "=", "pIC50": 6.56}

These measurements were taken from patent US9340577B2.
